Tested on: JSQ3 cells
Test description: Cytotoxicity with or without irradiation, MTS assay
Assay type: cell-based, human
Condition set: irradiation Yes, read-out: Cisplatin IC50
pIC50: −log10 of the molar value.

Compound	pIC50
N.N.[Cl][Pt][Cl] [Free cisplatin, cisplatin]	4.88

###

Tested on: A2780 cells
Test description: Cytotoxicity of cisplatin/GMP NCP, MTS assay
Format: cell-based, human
pIC50: −log10 of the molar value.

Compound	pIC50
N.N.[Cl][Pt][Cl] [Free cisplatin, cisplatin]	6.12

###

Test system: HNSCC135 cells
Test description: Cytotoxicity with or without irradiation, MTS assay
Type: cell-based, human
Condition set: irradiation Yes (670 nm, 54 J/cm^2), read-out: Cisplatin IC50
pIC50: −log10 of the molar value.

Molecule	pIC50
N.N.[Cl][Pt][Cl] [Free cisplatin, cisplatin]	5.58
